- system_name: JAK2 (Homo sapiens (Human), UniProt O60674)
- Sequence (O60674 849-1124): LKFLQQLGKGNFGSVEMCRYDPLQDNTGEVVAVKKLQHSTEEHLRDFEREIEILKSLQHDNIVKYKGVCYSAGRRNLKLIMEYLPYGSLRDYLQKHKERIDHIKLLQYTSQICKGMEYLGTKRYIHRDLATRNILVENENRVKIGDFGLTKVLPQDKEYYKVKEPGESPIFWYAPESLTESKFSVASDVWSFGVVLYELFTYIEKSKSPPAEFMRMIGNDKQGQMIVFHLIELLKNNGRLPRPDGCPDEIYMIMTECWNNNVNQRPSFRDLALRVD
- run_description: Jak Biochemical HTRF Assay, JAK2
- cond: HTRF biochemical assay, GST-tagged catalytic domain; top concentration tested […]
experimental_endpoint: pIC50
Reminder that pIC50 is minus the log10 of a molar concentration.

N#CCC1(n2cc(C(N)=O)c(Nc3ccnc(F)c3)n2)CCN(Cc2cccc(Cl)c2)CC1    8.00
CC(C)(C)OC(=O)N1CCC(CC#N)(n2cc(C(N)=O)c(Nc3ccc(F)nc3)n2)CC1    8.15

Please turn your attention to the following entry.
Given the entry `CC(C)(C)OC(=O)N1CCC(CC#N)(n2cc(C(N)=O)c(Nc3ccnc(C#N)c3)n2)CC1` , report its measured pIC50.
8.22

----------
- system_name: JAK1 (Homo sapiens (Human), UniProt P23458)
- Sequence (P23458 875-1153): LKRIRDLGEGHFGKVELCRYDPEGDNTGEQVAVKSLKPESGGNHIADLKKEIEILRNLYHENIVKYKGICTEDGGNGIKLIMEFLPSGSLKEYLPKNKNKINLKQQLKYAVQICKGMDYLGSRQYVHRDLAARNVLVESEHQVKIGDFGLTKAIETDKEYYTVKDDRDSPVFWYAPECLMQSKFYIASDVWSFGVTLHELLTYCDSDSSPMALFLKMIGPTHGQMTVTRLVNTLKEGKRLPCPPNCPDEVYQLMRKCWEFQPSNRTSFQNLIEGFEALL
- run_description: Jak Biochemical HTRF Assay, JAK1
- cond: HTRF biochemical assay, GST-tagged catalytic domain; top concentration tested […]; read-out: JAK1 IC50
Recorded pIC50 values for a group of compounds are listed next.
Reminder that pIC50 is minus the log10 of a molar concentration.

N#CCC1(n2cc(C(N)=O)c(Nc3ccnc(F)c3)n2)CCN(C(=O)CC(F)(F)F)CC1    9.70

Given the entry `N#CCC1(n2cc(C(N)=O)c(Nc3ccc(F)cc3)n2)CCN(c2cc(F)ccn2)CC1` , report its measured pIC50.
9.70

Given the entry N#CCC1(n2cc(C(N)=O)c(Nc3ccnc(F)c3)n2)CCC(NCc2cccc(F)c2)CC1 (stereo not drawn) [Example 41-24] , report its measured pIC50.
7.59

----------
- system_name: JAK1 (Homo sapiens (Human), UniProt P23458)
- run_description: Jak Biochemical HTRF Assay, JAK1
- cond: HTRF biochemical assay, GST-tagged catalytic domain; top concentration tested […]; read-out: JAK1 IC50
Recorded IC50 values for a group of molecules are listed next.
Please give a number only; it is taken to be in nM.

Reference set (5 entries):
N#CCC1(n2cc(C(N)=O)c(Nc3ccccc3)n2)CCN(Cc2ccc(Cl)cc2F)CC1 [Example 21-21]    3
N#CCC1(n2cc(C(N)=O)c(Nc3ccc(F)cc3)n2)CCC(Nc2cccnc2)CC1 (stereo not drawn) [Example 40-75]    0.2
N#CCC1(n2cc(C(N)=O)c(Nc3ccc(F)cc3)n2)CCN(c2cccc(C3CC3)c2)CC1 [Example 3-17]    32
N#CCC1(n2cc(C(N)=O)c(Nc3ccc(F)cc3)n2)CCN(c2ccnc3ccccc23)CC1 [Example 3-3]    5
N#CCC1(n2cc(C(N)=O)c(Nc3ccnc(F)c3)n2)CCN(C(=O)OC2CCOCC2)CC1 [Example 30-17]    3

Given the entry COc1ccc(CC(=O)N2CCC(CC#N)(n3cc(C(N)=O)c(Nc4ccccc4)n3)CC2)cc1 [Example 34-24] , report its measured IC50.
7

Given the entry N#CCC1(n2cc(C(N)=O)c(Nc3ccnc(F)c3)n2)CCN(Cc2ccon2)CC1 [Example 22-31] , report its measured IC50.
1

Given the entry CN(CCS(C)(=O)=O)C1CCC(CC#N)(n2cc(C(N)=O)c(Nc3ccc(F)cc3)n2)CC1 (stereo not drawn) [Example 40-72] , report its measured IC50.
1

Given the entry N#CCC1(n2cc(C(N)=O)c(Nc3ccccc3)n2)CCN(Cc2cccc(C#N)c2)CC1 [Example 21-3] , report its measured IC50.
79

----------
- system_name: JAK2 (Homo sapiens (Human))
- run_description: Jak Biochemical HTRF Assay, JAK2
- cond: HTRF biochemical assay, GST-tagged catalytic domain; top concentration tested […]
experimental_endpoint: IC50

CC(C)(C)OC(=O)N1CCC(CC#N)(n2cc(C(N)=O)c(Nc3cc(F)ccn3)n2)CC1 [Example 13-5]    903 nM
CC(C)(C)OC(=O)N1CCC(CC#N)(n2cc(C(N)=O)c(Nc3ccncc3)n2)CC1 [Example 2-7]    10 nM
Cn1ccc(-c2ccc(Nc3nn(C4(CC#N)CCN(C(=O)OC(C)(C)C)CC4)cc3C(N)=O)cc2)n1 [Example 9-13]    138 nM
Cc1ccc(Cl)cc1NC(=O)N1CC(CC#N)(n2cc(C(N)=O)c(Nc3ccccc3)n2)C1 [Example 38-17]    149 nM
Cc1ccc(NC(=O)N2CC(CC#N)(n3cc(C(N)=O)c(Nc4ccccc4)n3)C2)c(C)c1 [Example 38-19]    334 nM
COc1ccc(C(=O)N2CCC(CC#N)(n3cc(C(N)=O)c(Nc4ccccc4)n3)CC2)cc1 [Example 34-18]    137 nM
CN1CCC(COC(=O)N2CCC(CC#N)(n3cc(C(N)=O)c(Nc4ccccc4)n3)CC2)CC1 [Example 30-44]    318 nM

Given the entry COC(=O)N1CCC(CC#N)(n2cc(C(N)=O)c(Nc3ccc(S(=O)(=O)C(F)(F)F)cc3)n2)CC1 [Example 27-1] , report its measured IC50.
2 nM

----------
Recorded log10 of IC50 values for a group of compounds are listed next.
- system_name: JAK2 (Homo sapiens (Human))
- run_description: Jak Biochemical HTRF Assay, JAK2
- cond: HTRF biochemical assay, GST-tagged catalytic domain; top concentration tested […]
Please note: log10 values; quantity IC50; unit nM.

Reference set (5 entries):
N#CCC1(n2cc(C(N)=O)c(Nc3ccnc(F)c3)n2)CCN(C(=O)CCC(F)(F)F)CC1    0.95
Cc1cncc(N2CCC(CC#N)(n3cc(C(N)=O)c(Nc4ccc(F)cc4)n3)CC2)c1    1.41
CN(C)c1ccc(C(=O)N2CCC(CC#N)(n3cc(C(N)=O)c(Nc4ccccc4)n3)CC2)cc1    2.36
COc1ncc(N2CCC(CC#N)(n3cc(C(N)=O)c(Nc4ccc(F)cc4)n3)CC2)cn1    1.32
CC(C)(C)OC(=O)N1CC(CC#N)(n2cc(C(N)=O)c(Nc3ccc(C(=O)N4CCS(=O)(=O)CC4)cc3)n2)C1    0.70

Given the entry `N#CCC1(n2cc(C(N)=O)c(Nc3cccc(-c4cc[nH]n4)c3)n2)CCN(C(=O)OCC(F)(F)F)CC1` , report its measured log10 of IC50.
1.46

Given the entry CC(C)(C)OC(=O)N1CC[C@@](CC#N)(n2cc(C(N)=O)c(Nc3ccc(F)cc3)n2)[C@H](F)C1 (single isomer, unassigned) , report its measured log10 of IC50.
1.51

Given the entry `CC(C)(C)OC(=O)N1CCC(CC#N)(n2cc(C(N)=O)c(Nc3ccnc(CO)c3)n2)CC1` , report its measured log10 of IC50.
2.00

Given the entry N#CCC1(n2cc(C(N)=O)c(Nc3ccc(F)cc3)n2)CCN(C(=O)OC2CCOC2)CC1 (single isomer, unassigned) [Example 50-1] , report its measured log10 of IC50.
1.67

Given the entry `COCCCOC(=O)N1CC(CC#N)(n2cc(C(N)=O)c(Nc3ccccc3)n2)C1` , report its measured log10 of IC50.
2.78

----------
Recorded pIC50 values for a group of compounds are listed next.
- system_name: JAK1 (Homo sapiens (Human))
- run_description: Jak Biochemical HTRF Assay, JAK1
- cond: HTRF biochemical assay, GST-tagged catalytic domain; top concentration tested […]; read-out: JAK1 IC50
- Excerpt: Jak Biochemical HTRF Assay Protocol Subsequent reagent additions employed an Agilent Bravo.
Reminder that pIC50 is minus the log10 of a molar concentration.

Reference set (5 entries):
COc1cc(N2CCC(CC#N)(n3cc(C(N)=O)c(Nc4ccc(F)cc4)n3)CC2)ccc1F [Example 3-11]    8.40
N#CCC1(n2cc(C(N)=O)c(Nc3cncc(F)c3)n2)CCN(C(=O)OCC(F)(F)F)CC1 [Example 10-8]    9.15
N#CCC1(n2cc(C(N)=O)c(Nc3ccccc3)n2)CCN(C(=O)Nc2ccc(C#N)cc2)CC1 [Example 38-47]    9.70
CN1CC(CC#N)(n2cc(C(N)=O)c(Nc3ccccc3)n2)C1 [Example 20]    6.45
N#CCC1(n2cc(C(N)=O)c(Nc3ccccc3)n2)CCN(C(=O)c2ccccn2)CC1 [Example 34-9]    7.74

Please turn your attention to the following entry.
Given the entry CC(=O)c1ccc(Nc2nn(C3(CC#N)CCN(C(=O)OC(C)(C)C)CC3)cc2C(N)=O)cc1 [Example 9-10] , report its measured pIC50.
9.70

----------
- system_name: JAK1 (Homo sapiens (Human))
- run_description: Jak Biochemical HTRF Assay, JAK1
- cond: HTRF biochemical assay, GST-tagged catalytic domain; top concentration tested […]; read-out: JAK1 IC50
Recorded IC50 values for a group of compounds are listed next.
Please give a number only; it is taken to be in nM.

Reference set (5 entries):
N#CCC1(n2cc(C(N)=O)c(Nc3ccccc3)n2)CN(C(=O)Nc2ccc(F)c(F)c2)C1    7
Cc1nc(-c2ccc(Nc3nn(C4(CC#N)CCN(C(=O)OC(C)(C)C)CC4)cc3C(N)=O)cc2)no1    0.3
N#CCC1(n2cc(C(N)=O)c(Nc3ccccc3)n2)CN(C(=O)OC2CCCCC2)C1    14
Cc1cncc(N2CCC(CC#N)(n3cc(C(N)=O)c(Nc4ccc(F)cc4)n3)CC2)c1    1
N#CCC1(n2cc(C(N)=O)c(Nc3ccnc(F)c3)n2)CCC(NCc2ccc(Cl)cc2)CC1 (stereo not drawn) [Example 41-9]    15

Form: Entry = `COCCOC(=O)N1CCC(CC#N)(n2cc(C(N)=O)c(Nc3ccccc3)n2)CC1` | System = JAK1 (Homo sapiens (Human)) | IC50 = ____
4

Form: Entry = `N#CCC1(n2cc(C(N)=O)c(Nc3ccccc3)n2)CCN(C(=O)c2cccs2)CC1` | System = JAK1 (Homo sapiens (Human)) | IC50 = ____
0.3
